SYSTEM_UNDER_TEST: apo ACOX-1.1 (Caenorhabditis elegans)
EXPERIMENT_SUMMARY: FAD and ATP dissociation constants by fluorescence polarization
Type: binding, C. elegans
EXPERIMENTAL_CONDITIONS: KD of ACOX-1.1 for ATP, 4 μM apo ACOX-1.1, 100 nM FAD; 95% CI: 6.1–27.5 μM

| COMPOUND | Kd |
| --- | --- |
| Nc1ncnc2c1ncn2[C@@H]1O[C@H](COP(=O)(O)OP(=O)(O)OP(=O)(O)O)[C@@H](O)[C@H]1O [ATP] | 20.7 µM |

----------
SYSTEM_UNDER_TEST: apo ACOX-1.1 (Caenorhabditis elegans, UniProt O62140)
Sequence (O62140 whole entry): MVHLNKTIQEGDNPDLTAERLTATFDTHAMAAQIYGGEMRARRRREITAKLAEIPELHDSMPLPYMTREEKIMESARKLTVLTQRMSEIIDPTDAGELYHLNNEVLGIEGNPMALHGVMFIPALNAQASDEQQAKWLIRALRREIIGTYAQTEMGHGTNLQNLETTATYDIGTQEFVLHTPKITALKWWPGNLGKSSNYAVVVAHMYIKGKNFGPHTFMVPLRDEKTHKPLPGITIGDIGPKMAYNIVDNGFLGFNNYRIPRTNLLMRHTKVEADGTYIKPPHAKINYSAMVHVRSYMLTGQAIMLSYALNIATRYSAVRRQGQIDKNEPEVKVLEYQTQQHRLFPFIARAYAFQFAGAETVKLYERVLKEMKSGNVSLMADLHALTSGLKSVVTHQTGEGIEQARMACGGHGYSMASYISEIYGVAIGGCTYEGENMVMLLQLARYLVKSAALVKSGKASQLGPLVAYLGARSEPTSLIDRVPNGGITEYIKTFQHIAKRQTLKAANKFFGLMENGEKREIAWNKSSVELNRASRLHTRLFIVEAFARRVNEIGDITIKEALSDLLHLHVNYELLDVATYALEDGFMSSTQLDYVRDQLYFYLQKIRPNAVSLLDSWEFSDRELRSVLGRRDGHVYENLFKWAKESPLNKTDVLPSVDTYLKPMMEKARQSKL
EXPERIMENT_SUMMARY: FAD and ATP dissociation constants by fluorescence polarization
Type: binding, C. elegans
EXPERIMENTAL_CONDITIONS: KD of ACOX-1.1 for FAD, in the presence of ATP (350 μM)

| COMPOUND | Kd |
| --- | --- |
| Cc1cc2nc3c(=O)[nH]c(=O)nc-3n(C[C@H](O)[C@H](O)[C@H](O)COP(=O)(O)OP(=O)(O)OC[C@H]3O[C@@H](n4cnc5c(N)ncnc54)[C@H](O)[C@@H]3O)c2cc1C [FAD] | ~450 nM |
